Cited source: patent US6787543B2

READOUT: melting point

COc1cc(OC)c(CN2C[C@@H]3CN(C(C)=O)CCN3[C@H](C(c3ccccc3)c3ccccc3)C2)c(OC)c1.Cl.Cl ... 170 to 173 °C
COc1ccc(-n2nnnc2C(F)(F)F)cc1CN1C[C@@H]2CN(C(=O)C(C)C)CCN2[C@H](C(c2ccccc2)c2ccccc2)C1.Cl.Cl ... 172 to 175 °C
COc1ccc(-c2ccsc2)cc1CN1C[C@@H]2CN(C(C)=O)CCN2[C@H](C(c2ccccc2)c2ccccc2)C1.Cl.Cl ... 177 to 181 °C

###

READOUT: melting point

CCC(=O)N1CCN2[C@H](CN(Cc3cc(-n4nnnc4C(F)(F)F)ccc3OC)C[C@H]2C(c2ccccc2)c2ccccc2)C1.Cl.Cl ... 171 to 175 °C
CC(=O)N1CCN2[C@H](CN(Cc3cc(-n4nnnc4C(F)(F)F)ccc3OC(C)C)C[C@H]2C(c2ccccc2)c2ccccc2)C1.Cl.Cl ... 167 to 171 °C
COc1ccc(-c2ccncc2)cc1CN1C[C@@H]2CN(C(C)=O)CCN2[C@H](C(c2ccccc2)c2ccccc2)C1.Cl.Cl.Cl ... 210 to 215 °C
CCOC(=O)N1CCN2[C@H](CN(Cc3cc(-n4nnnc4C(F)(F)F)ccc3OC)C[C@H]2C(c2ccccc2)c2ccccc2)C1.Cl.Cl ... 153 to 156 °C
COc1ccc(-n2nnnc2C(F)(F)F)cc1CN1C[C@@H]2CN(C(=O)CC(C)C)CCN2[C@H](C(c2ccccc2)c2ccccc2)C1.Cl.Cl ... 138 to 150 °C (dec.)
CCCC(=O)N1CCN2[C@H](CN(Cc3cc(-n4nnnc4C(F)(F)F)ccc3OC)C[C@H]2C(c2ccccc2)c2ccccc2)C1.Cl.Cl ... 162 to 166 °C
COc1ccc(C(F)(F)F)cc1CN1C[C@@H]2CN(C(C)=O)CCN2[C@H](C(c2ccccc2)c2ccccc2)C1.Cl.Cl ... 147 to 150 °C
